IC50: recorded values
target: Avi-KRAS G12R (1-169) GppNHp/RAF1 RBD-3xFLAG (52-151) (Homo sapiens, UniProt P01116, G12R); construct: Avi-KRAS G12R (1-169); test: Raf1-KRAS G12R-GppNHP disruption HTRF assay (Biological Example 1); assay type: binding; settings: KRAS G12R-GppNHp/RAF1 RBD HTRF
Sequence (P01116 1-169 isoform P01116-2 G12R): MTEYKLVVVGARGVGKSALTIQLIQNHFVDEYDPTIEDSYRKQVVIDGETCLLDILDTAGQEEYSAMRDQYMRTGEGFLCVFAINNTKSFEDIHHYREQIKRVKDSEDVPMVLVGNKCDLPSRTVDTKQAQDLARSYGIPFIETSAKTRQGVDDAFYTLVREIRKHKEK

COMPOUND	IC50
N#Cc1c(N)sc2c(F)ccc(-c3c(C(F)(F)F)cc4c(N5C6COCC5CC(O)C6)nc(OC[C@@]56CCCN5C[C@H](F)C6)nc4c3F)c12 (some centres unmarked)	1000 to 10000 nM
N#Cc1c(N)sc2c(F)ccc(-c3c(C(F)(F)F)cc4c(N5CCc6nocc6C5)nc(OC[C@@]56CCCN5C[C@H](F)C6)nc4c3F)c12	100 to 1000 nM
N#Cc1c(N)sc2c(F)ccc(-c3c(C(F)(F)F)cc4c(N5CC6CC(O)C(C6)C5)nc(OC[C@@]56CCCN5C[C@H](F)C6)nc4c3F)c12 (some centres unmarked)	1000 to 10000 nM
CCN(c1nc(OC[C@@]23CCCN2C[C@H](F)C3)nc2c(F)c(-c3ccc(F)c4sc(N)c(C#N)c34)c(Cl)cc12)[C@@H]1CCN(C(C)=O)[C@H]1C	1000 to 10000 nM
CCC(=O)N1CC[C@@H](N(C)c2nc(OC[C@@]34CCCN3C[C@H](F)C4)nc3c(F)c(-c4ccc(F)c5sc(N)c(C#N)c45)c(C(F)(F)F)cc23)[C@@H]1C	1000 to 10000 nM

// query Quick one: give measured IC50 for N#Cc1c(N)sc2c(F)ccc(-c3c(C(F)(F)F)cc4c(N5CCN6C(=O)CCC6C5)nc(OCC56CCCN5CC(F)C6)nc4c3F)c12 (centres unmarked) [Compound 412]
// result 100 to 1000 nM

// query Quick one: give measured IC50 for CC(=O)N1C[C@@H](C)[C@H](N(C)c2nc(OC[C@@]34CCCN3C[C@H](F)C4)nc3c(F)c(-c4ccc(F)c5sc(N)c(C#N)c45)c(C(F)(F)F)cc23)C1
// result 100 to 1000 nM

// query Quick one: give measured IC50 for CCC(=O)N1CC[C@@H](N(C)c2nc(OC[C@@]34CCCN3C[C@H](F)C4)nc3c(F)c(-c4ccc(F)c5sc(N)c(C#N)c45)c(C(F)(F)F)cc23)[C@H]1C (atropisomer, axis not shown)
// result < 100 nM

// query Quick one: give measured IC50 for C[C@@H]1[C@H](N(C)c2nc(OC[C@@]34CCCN3C[C@H](F)C4)nc3c(F)c(-c4ccc(F)c5sc(N)c(C#N)c45)c(C(F)(F)F)cc23)CCN1C(=O)C1CC1 (atropisomer, axis not shown) [Compound 333]
// result < 100 nM

// query Quick one: give measured IC50 for C[C@@H]1[C@H](N(C)c2nc(OC[C@@]34CCCN3C[C@H](F)C4)nc3c(F)c(-c4ccc(F)c5sc(N)c(C#N)c45)c(Cl)cc23)CCN1C(=O)C(C)(C)F
// result 1000 to 10000 nM

// query Quick one: give measured IC50 for CC(=O)N1C2CCC1CN(c1nc(OC[C@@]34CCCN3C[C@H](F)C4)nc3c(F)c(-c4ccc(F)c5sc(N)c(C#N)c45)c(C(F)(F)F)cc13)C2
// result 100 to 1000 nM
